# System: EKVX
# TEST_NAME: NCI tumour cell line growth inhibition, 48 h
Activity calls are given as the source filed them. Rule as the data show it: active = GI50 up to about 1.1 µM and inactive = higher.
Pick one and only one: 1 for active, -1 for inactive

Record excerpt, results attached:
                                   compound  assigned_label
0              C/C(=N\NC(=S)N1CCC1)c1ccccn1               1
1  COC(=O)C1CCCC2(C1)OCCO2 (stereo not drawn)              -1
2         CCSCC(N)C(=O)O (stereo not drawn)              -1
3  CCCCN(CCCC)C(=O)/C(CC(=O)c1cccc2ccccc12)=N\NC(=O)c1cc2ccccc2cc1O              -1
4  CCC(O)(c1ccc(OC)cc1)C(c1ccc(OCc2ccccc2)cc1)c1ccc(OCc2ccccc2)cc1 (stereo not drawn)              -1
5  O=C1C(=O)N(c2cc(Cl)ccc2Cl)C(=O)C(=O)C1c1nc2ccccc2s1              -1
6        CN(C)c1ccc(C(=O)NCCCCCCC(=O)NO)cc1              -1
7  Cc1ccc(/N=c2/oc3c(ccc4ccccc43)nc2Nc2ccc(C)cc2)cc1              -1
8      N[C@H](C(=O)O)[C@H]1ON=C(Cl)[C@@H]1O              -1
9       Cc1ccc(C(=O)Oc2ccccc2)cc1/N=N/N(C)C              -1

I would be grateful if you could indicate the recorded call for N#C/C(=C\c1cc(O)c(O)c(O)c1)C(N)=O .
-1

I would be grateful if you could indicate the recorded call for CCCCCCCCCCCCCCCC(=O)OC(COC(C)=O)CO[PH](=O)O (stereo not drawn) .
-1

I would be grateful if you could indicate the recorded call for COC(=O)c1c(O)ccc2c1c1cc3ccccc3c(O)c1n2CCc1ccc(OC)c(OC)c1 .
-1

I would be grateful if you could indicate the recorded call for CN/C(=N\CCSCc1nc[nH]c1C)NC#N .
-1

I would be grateful if you could indicate the recorded call for CCn1c2nc(=O)n(CCCCCCCCSC(c3ccccc3)(c3ccccc3)c3ccccc3)c(=O)c-2nc2ccccc21 .
-1

I would be grateful if you could indicate the recorded call for C1=CC2=CC=CC3c4nc5ccc6ccccc6c5nc4C(=C1)C23 (stereo not drawn) .
-1

I would be grateful if you could indicate the recorded call for CCOC(=O)Nc1sc2c(c1C#N)CCCC2 .
-1

I would be grateful if you could indicate the recorded call for CC(C)(C)/C(O)=C\c1nc2ccc(C(F)(F)F)cc2[nH]c1=O .
-1
